// reported relative viability for each item listed
# Test system: NCI-H1993
# assay info: relative viability (nuclei count vs DMSO), 5 days (fraction); higher = more cells survive
# study conditions: first compound 0.03162 µM

For orientation, consider the following solved cases.
[[record]]
molecule = "O=c1cc(N2CCOCC2)oc2c(-c3cccc4c3sc3ccccc34)cccc12 + O=C(c1cc(Cc2n[nH]c(=O)c3ccccc23)ccc1F)N1CCN(C(=O)C2CC2)CC1 [Olaparib] (partner 8 µM)"
measurement_target = "NCI-H1993"
recorded_value = 0.958

[[record]]
molecule = "O=c1cc(N2CCOCC2)oc2c(-c3cccc4c3sc3ccccc34)cccc12 + CS(=O)(=O)N1CCN(Cc2cc3nc(-c4cccc5[nH]ncc45)nc(N4CCOCC4)c3s2)CC1 [Pictilisib] (partner 1 µM)"
measurement_target = "NCI-H1993"
recorded_value = 0.945


Okay, now this molecule:
relative viability reading for O=c1cc(N2CCOCC2)oc2c(-c3cccc4c3sc3ccccc34)cccc12 + Nc1ncn([C@H]2C[C@H](O)[C@@H](CO)O2)c(=O)n1 [Decitabine] (partner 2 µM) : 0.639
